Numbers sourced from patent US8957062B2.

# tested-target: human GPR119 (Homo sapiens)
# method-description: Measurement of GPR119 signaling (cAMP assay) in cells stably transfected with human GPR119
# Format: cell-based
# test-context: unit inferred; read-out: GPR119 Human EC50
observation-type: EC50 (nM)

• Cc1nnc(-c2ccc(OCC[C@@H]3C[C@@H]3C3CCN(C(=O)OC(C)(C)C)CC3)cc2F)o1 = 1.8

====

Below, each entry is listed with its recorded EC50.
# tested-target: human GPR119 (Homo sapiens, UniProt Q8TDV5)
# Sequence (Q8TDV5 1-308 limits assumed): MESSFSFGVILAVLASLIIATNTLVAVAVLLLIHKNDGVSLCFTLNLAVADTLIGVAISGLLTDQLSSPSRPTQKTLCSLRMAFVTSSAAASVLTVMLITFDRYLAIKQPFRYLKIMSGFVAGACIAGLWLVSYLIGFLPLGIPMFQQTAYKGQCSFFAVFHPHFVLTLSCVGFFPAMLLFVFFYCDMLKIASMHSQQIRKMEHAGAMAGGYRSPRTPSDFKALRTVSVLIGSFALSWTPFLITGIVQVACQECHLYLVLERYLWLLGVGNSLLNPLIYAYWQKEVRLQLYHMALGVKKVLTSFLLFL
# method-description: Measurement of GPR119 signaling (cAMP assay) in cells stably transfected with human GPR119
# Format: cell-based
# test-context: table column; cAMP stimulation, human GPR119; read-out: GPR119 Human EC50
observation-type: EC50 (nM)

* CC(C)c1noc(N2CCC([C@H]3C[C@H]3CCOc3ccc(S(C)(=O)=O)cn3)CC2)n1 [Example 209] | 2
* CC(C)c1noc(N2CCC([C@H]3C[C@H]3CCOc3ccc(CC(=O)N4CCC(C)(O)C4)c(F)c3)CC2)n1 (stereo partly shown) [Example 174] | 11.4
* Cc1nc(C#N)cc(OCC[C@@H]2C[C@@H]2C2CCN(C(=O)CCC(F)(F)F)CC2)n1 [Example 96] | 43
* CC(C)c1noc(N2CCC([C@H]3C[C@H]3CCOc3ccc(CC(=O)N4CCC4)cc3)CC2)n1 [Example 128] | 1.8
* CC(C)Cc1nc(N2CCC([C@H]3C[C@H]3CCOc3ccc(S(C)(=O)=O)cn3)CC2)no1 [Example 235] | 6.5
* CC(C)c1noc(N2CCC([C@H]3C[C@H]3CCOc3ccc(CC(=O)N(C)C4CCOC4)c(F)c3)CC2)n1 (stereo partly shown) [Example 161] | 1.1
* O=C(OCc1ccccc1)N1CCC([C@H]2C[C@H]2CCOc2ccc(-n3cnnn3)cc2)CC1 [Example 12] | 11.8
* CC(C)c1noc(N2CCC([C@H]3C[C@H]3CCOc3ccc(-n4cnnn4)cn3)CC2)n1 [Example 231] | 0.4
* CC(C)c1noc(N2CCC([C@H]3C[C@H]3CCOc3ccc(CC(=O)N4CC(O)C4)c(F)c3)CC2)n1 [Example 139] | 6
* CC(C)(CC(=O)N1CCC([C@H]2C[C@H]2CCOc2ccc(-n3cnnn3)cc2)CC1)C1CC1 [Example 80] | 4
* CC(C)(C)OC(=O)N1CCC([C@H]2C[C@H]2CCOc2cc(F)c(S(C)(=O)=O)c(F)c2)CC1 [Example 38] | 12
* CS(=O)(=O)c1ccc(OCC[C@@H]2C[C@@H]2C2CCN(c3nc(C4CC4)no3)CC2)nc1 [Example 210] | 6
* CS(=O)(=O)c1ccc(OCC[C@@H]2C[C@@H]2C2CCN(C(=O)OCC3CCC3)CC2)nc1 [Example 22] | 5
* CCCc1noc(N2CCC([C@H]3C[C@H]3CCOc3ccc(S(C)(=O)=O)cn3)CC2)n1 [Example 211] | 8
* Cc1cc(CC(=O)N(C)C)cnc1OCC[C@@H]1C[C@@H]1C1CCN(c2nc(C(C)C)no2)CC1 [Example 263] | 14
* COCc1noc(N2CCC([C@H]3C[C@H]3CCOc3ccc(CC(=O)N4CC(F)(F)C4)c(F)c3)CC2)n1 [Example 200] | 1.2
* CC(C)c1noc(N2CCC([C@H]3C[C@H]3CCOc3ccc(CC(=O)N(C)C4(C)CCCC4)c(F)c3)CC2)n1 [Example 165] | 8.1
* COCc1noc(N2CCC([C@H]3C[C@H]3CCOc3cc(F)c(CC(=O)N(C)C)c(F)c3)CC2)n1 [Example 206] | 2.5
* CS(=O)(=O)c1ccc(OCC[C@@H]2C[C@@H]2C2CCN(c3nc(C4CCC4)no3)CC2)nc1 [Example 212] | 4.8
* CC(C)(C)c1nc(N2CCC([C@H]3C[C@H]3CCOc3ccc(S(C)(=O)=O)cn3)CC2)no1 [Example 236] | 1.7
* CC(C)c1noc(N2CCC([C@H]3C[C@H]3CCOc3ccc(CC(=O)N4CC(C)(O)C4)c(F)c3)CC2)n1 [Example 140] | 3.6
* CC(C)(C)CC(=O)N1CCC([C@H]2C[C@H]2CCOc2ccc(S(C)(=O)=O)c(F)c2)CC1 [Example 95] | 5.4
* CC(C)c1noc(N2CCC([C@H]3C[C@H]3CCOc3ccc(CC(=O)N(C)C4CCS(=O)(=O)C4)c(F)c3)CC2)n1 (stereo partly shown) [Example 162] | 2
* CC(C)c1noc(N2CCC([C@H]3C[C@H]3CCOc3ccc(CC(=O)N(C)C4CCOCC4)c(F)c3)CC2)n1 [Example 160] | 4.8
* COc1cc(OCC[C@@H]2C[C@@H]2C2CCN(c3nc(C(C)C)no3)CC2)ccc1-n1cnnn1 [Example 125] | 11
* CCOCc1noc(N2CCC([C@H]3C[C@H]3CCOc3ccc(S(C)(=O)=O)cn3)CC2)n1 [Example 218] | 14
* CS(=O)(=O)c1ccc(OCC[C@@H]2C[C@@H]2C2CCN(c3noc(C4CC4)n3)CC2)nc1 [Example 238] | 22
* CC(C)c1noc(N2CCC([C@H]3C[C@H]3CCOc3ccc(CC(=O)N4CCc5cccnc5C4)c(F)c3)CC2)n1 [Example 181] | 3.7

====

# tested-target: human GPR119 (Homo sapiens)
# method-description: Measurement of GPR119 signaling (cAMP assay) in cells stably transfected with human GPR119
# Assay type: cell-based
# test-context: stated in the example text; cAMP stimulation, human GPR119; read-out: GPR119 Human EC50
pEC50: −log10 of the molar value.
Label rule, in plain words: pEC50 of 9 and up is criterion met, under 9 is criterion not met.

• COCc1noc(N2CCC([C@H]3C[C@H]3CCOc3ccc(S(C)(=O)=O)cn3)CC2)n1 [Example 208] = criterion not met
• CC(C)OC(=O)N1CCC([C@H]2C[C@H]2CCOc2cc(F)c(C(=O)NC3CC3)c(F)c2)CC1 [Example 58] = criterion not met
• CS(=O)(=O)c1ccc(OCC[C@@H]2C[C@@H]2C2CCN(C(=O)CC3CCCCC3)CC2)nc1 [Example 85] = criterion not met
• O=C(CC1CCCCC1)N1CCC([C@H]2C[C@H]2CCOc2ccc(-n3cnnn3)cc2)CC1 [Example 77] = criterion not met
• CC(C)c1noc(N2CCC([C@H]3C[C@H]3CCOc3ccc(Cc4nnco4)c(F)c3)CC2)n1 [Example 256] = criterion not met
• CC1(OC(=O)N2CCC([C@H]3C[C@H]3CCOc3ccc(CC(=O)N4CCC4)cc3)CC2)CC1 [Example 57] = criterion not met
• COC(=O)N1CCC([C@H]2C[C@H]2CCOc2cc(C#N)nc(C)n2)CC1 [Example 44] = criterion not met
• Cc1cc(-n2cnnn2)cnc1OCC[C@@H]1C[C@@H]1C1CCN(c2nc(C(C)C)no2)CC1 [Example 225] = criterion met
• CC(C)c1noc(N2CCC([C@H]3C[C@H]3CCOc3ccc(-n4cnnn4)cc3)CC2)n1 [Example 98] = criterion not met
• CCCCc1nnc(N2CCC([C@H]3C[C@H]3CCOc3ccc(S(C)(=O)=O)cn3)CC2)o1 [Example 247] = criterion not met
• O=C(c1c(F)cc(OCC[C@@H]2C[C@@H]2C2CCN(c3nc4ncccn4n3)CC2)cc1F)C1CC1 [Example 251] = criterion not met
• CCS(=O)(=O)c1ccc(OCC[C@H]2C[C@H]2C2CCN(c3nc(COC)no3)CC2)cc1F (stereo in doubt) [Example 15] = criterion not met
• CS(=O)(=O)c1ccc(OCC[C@@H]2C[C@@H]2C2CCN(C(=O)OCC3CC3)CC2)nc1 [Example 13] = criterion met

====

The entries below are paired with their reported pEC50.
# tested-target: human GPR119 (Homo sapiens, UniProt Q8TDV5)
# method-description: Measurement of GPR119 signaling (cAMP assay) in cells stably transfected with human GPR119
# Type: cell-based
# test-context: table column; cAMP stimulation, human GPR119; read-out: GPR119 Human EC50
# Protocol: Measurement of GPR119 Signaling (Cyclic AMP (cAMP) Assay) The adenylate cyclase assay was constructed following the LANCE™ cAMP Kit (Perkin Elmer, AD0264) instructions. The reaction was stopped by incubating with the supplied detection buffer containing the europium chelate of the Eu-SA/Biotin-cAMP tracer for 3 hours. The assay was performed in duplicate in a 384 well plate for duplicate plates and fluorescence was measured at 665 nm. […]
pEC50: −log10 of the molar value.
observation-type: pEC50

• CC(C)c1noc(N2CCC([C@H]3C[C@H]3CCOc3ccc(CC(=O)N4CCCC4)cc3)CC2)n1 = 8.85
• CC(C)c1noc(N2CCC([C@H]3C[C@H]3CCOc3ccc(CC(=O)N(C)CCn4cncn4)c(F)c3)CC2)n1 = 8.10
• CC(C)c1noc(N2CCC([C@H]3C[C@H]3CCOc3ccc(CC(=O)NCC4CC4)c(F)c3)CC2)n1 = 8.12
• COCc1noc(N2CCC([C@H]3C[C@H]3CCOc3ncc(-n4cnnn4)cc3C)CC2)n1 = 8.64
• CC(C)OC(=O)N1CCC([C@H]2C[C@H]2CCOc2ccc(S(C)(=O)=O)c(F)c2)CC1 = 8.64
• CC1CC1c1nc(N2CCC([C@H]3C[C@H]3CCOc3ccc(S(C)(=O)=O)cn3)CC2)no1 (stereo partly shown) = 8.15
• CC(C)c1noc(N2CCC([C@H]3C[C@H]3CCOc3ccc(CC(=O)N4CCn5nc(C(F)(F)F)nc5C4)c(F)c3)CC2)n1 = 8.82
